- measurementProtocol: xn = mol fraction of the nth substance listed, in the solute-free solvent
- runParameters: 283.15 K; x2 = 0.7
solubility (g/100 g solution): recorded values
Form: value (number only, do not type unit).

Input: Entry under review: O=c1ccc2ccccc2o1 + CO + O . Reported solubility (g/100 g solution)?
Output: 4.53

Input: Endpoint output: solubility (g/100 g solution) of O=c1ccc2ccccc2o1 + CC(C)=O + O . Value?
Output: 33.1

Input: // lookup solubility (g/100 g solution) for CCOC(=O)C1=CC2(CC)CCCN3CCc4c(n1c1ccccc41)C32 (centres undefined) + CCO + O
Output: 0.335

Input: Sample CC1(C)SC2C(NC(=O)C(NC(=O)N3CCNC3=O)c3ccccc3)C(=O)N2C1C(=O)O (centres undefined) + CO + CC(C)O — what was its solubility (g/100 g solution)?
Output: 0.243
